# System: CAKI-1
# measurement_notes: GI50 of drug in presence of dasatinib; higher = less potent
# assay_conditions: treatment: drug + dasatinib (fixed dose, not stated); 5 days
Recorded GI50 of drug by entry
result_type: GI50 of drug (µM)

INSERT INTO results (molecule, result_type, relation_qualifier, recorded_value) VALUES
  ('CN(C)C1CCN(C(=O)c2ccc(NC(=O)Nc3ccc(-c4nc(N5CCOCC5)nc(N5CCOCC5)n4)cc3)cc2)CC1 + Cc1nc(Nc2ncc(C(=O)Nc3c(C)cccc3Cl)s2)cc(N2CCN(CCO)CC2)n1', 'GI50 of drug', '=', 0.302),
  ('O=C(Nc1c[nH]nc1-c1nc2cc(CN3CCOCC3)ccc2[nH]1)NC1CC1 [AT9283] + Cc1nc(Nc2ncc(C(=O)Nc3c(C)cccc3Cl)s2)cc(N2CCN(CCO)CC2)n1', 'GI50 of drug', '=', 0.134),
  ('CN1CCN(c2ccc3nc(-c4c(N)c5c(F)cccc5[nH]c4=O)[nH]c3c2)CC1 [Dovitinib (TKI-258)] + Cc1nc(Nc2ncc(C(=O)Nc3c(C)cccc3Cl)s2)cc(N2CCN(CCO)CC2)n1', 'GI50 of drug', '=', 0.148),
  ('Nc1cccc2c1C(=O)N(C1CCC(=O)NC1=O)C2=O (stereo not given) [Pomalidomide] + Cc1nc(Nc2ncc(C(=O)Nc3c(C)cccc3Cl)s2)cc(N2CCN(CCO)CC2)n1', 'GI50 of drug', '>', 10),
  ('CN(C)C/C=C/C(=O)Nc1cc2c(Nc3ccc(F)c(Cl)c3)ncnc2cc1O[C@H]1CCOC1 [Afatinib (BIBW2992)] + Cc1nc(Nc2ncc(C(=O)Nc3c(C)cccc3Cl)s2)cc(N2CCN(CCO)CC2)n1', 'GI50 of drug', '=', 0.241);

====

# Test system: CAKI-1
# measurement_notes: GI50, drug alone; higher = less potent
# assay_conditions: treatment: drug alone; 5 days
Each record is given rule met if its reported GI50, drug alone is strictly below 700 nM. Records at or above 700 nM are given rule not met.

INSERT INTO assay_data (compound, target_system, qualitative_label) VALUES
  ('CC1(C)CCC(CN2CCN(c3ccc(C(=O)NS(=O)(=O)c4ccc(NCC5CCOCC5)c([N+](=O)[O-])c4)c(Oc4cnc5[nH]ccc5c4)c3)CC2)=C(c2ccc(Cl)cc2)C1 [ABT-199 (GDC-0199 )]', 'CAKI-1', 'rule not met'),
  ('Cc1ccc(NC(=O)c2ccc(CN3CCN(C)CC3)cc2)cc1Nc1nc(-c2cccnc2)cs1 [Masitinib (AB1010)]', 'CAKI-1', 'rule not met'),
  ('CS(=O)(=O)O.Cc1ccc(NC(=O)c2ccc(CN3CCN(C)CC3)cc2)cc1Nc1nccc(-c2cccnc2)n1 [Imatinib Mesylate]', 'CAKI-1', 'rule not met'),
  ('CCCNC(=O)Nc1ccc(Oc2ncnc3cc(OC)c(OC)cc23)cc1Cl [KRN 633]', 'CAKI-1', 'rule not met'),
  ('CC(C)n1nc(-c2ccc3oc(N)nc3c2)c2c(N)ncnc21 [INK 128]', 'CAKI-1', 'rule met'),
  ('Oc1cc(O)cc(/C=C/c2ccc(O)c(O)c2)c1 [Piceatannol]', 'CAKI-1', 'rule not met'),
  ('COc1cc(Nc2ncc3c(n2)-c2ccc(Cl)cc2C(c2c(F)cccc2OC)=NC3)ccc1C(=O)O [MLN8237 (Alisertib)]', 'CAKI-1', 'rule met'),
  ('CS(=O)(=O)O.O=C(Nc1cccc(Cl)c1)Nc1ncc(CCNc2ncnc3ccsc23)s1 [SNS-314]', 'CAKI-1', 'rule met'),
  ('CN(C)C1CCN(C(=O)c2ccc(NC(=O)Nc3ccc(-c4nc(N5CCOCC5)nc(N5CCOCC5)n4)cc3)cc2)CC1', 'CAKI-1', 'rule not met'),
  ('CNC(=O)Nc1ccc(-c2nc(N3CC4CCC(C3)O4)c3cnn(C4CCC5(CC4)OCCO5)c3n2)cc1', 'CAKI-1', 'rule met'),
  ('Cc1c(NC(=O)OC[C@@H]2COCCN2)cn2ncnc(Nc3ccc4c(cnn4Cc4cccc(F)c4)c3)c12.Cl', 'CAKI-1', 'rule not met'),
  ('COc1ccc2c(Oc3ccc(NC(=O)c4c(C)n(CC(C)(C)O)n(-c5ccccc5)c4=O)nc3)ccnc2c1 [AMG458]', 'CAKI-1', 'rule not met'),
  ('CCn1c(N)c(C(=O)NC)c(=O)c2ccc(C#C[C@@](C)(O)COC)nc21', 'CAKI-1', 'rule not met'),
  ('COc1cc(Nc2c(C#N)cnc3cc(OCCCN4CCN(C)CC4)c(OC)cc23)c(Cl)cc1Cl [Bosutinib (SKI-606)]', 'CAKI-1', 'rule not met');
